Source listed as the supplement of paper PMC9170038.

# Tested on: MS2 coat protein
# protocol-notes: apparent KD of MS2 coat protein; higher = weaker reporter binding
# run-parameters: Eterna round: R107; input ligand: theophylline 20 uM
readout: apparent KD of MS2 coat protein (nM)

# residue-string, observed
data = [
    ("ACAUGAGGAUCACCCAUGUCACGGCACGAUACCAGCUGAUGCGGUGGCCCUUGGCAGCGUGACGUUUGGUCCCGCGGAUGACACG [qsmullin]", 280),
    ("AAUAACAUGAGGAUCACCCAUGUAAGUAAACGAGGACCGGUACGGCCGCCACUCGAAUAAAUAAAGUACCGGUAAGAUCCAUAGA [Default title]", 25.9),
    ("ACAUGAGGAUCACCCAUGUGAUGGCACGAUACCAGCUGAUCCCGUGGCCCUUGGCAGCGUCCGGUGUGGUCCGGCGGGUGGGACG [qqwmullin]", 97.8),
    ("CGAUAUGAGGUCGAUACCAGCAGCUUCAAGCACAUGAGGAUCACCCAUGUCCAUUUUACUUGCCCUUGGCAGCGACUUUGGAAAC [theeternabot_sameState_MS2_Theo_B_23]", 34.9),
    ("GGCGCUGCGUCGGCCGCCACUAGUGGGUAAUGGGUGUACAUGAGGAUCACCCAUGUAUUUUGGCCUAGGACCGGGACGUGGCGCC [Oxen]", 455),
    ("UGUAUGUGAUCUGAUACCAGUCCAACUGGUAAAGCAUGAGGAACACCCAUGCAAAAUUGGGACCCUUGGCAGCAGAUCGCAUACU", 255),
]
